- experiment_description: Toxicity in po dosed mouse
- Type: organism-based
- experimental_conditions: in vivo
property: LD50

INPUT: Tell us which LD50 value is on record for O=C1OC[C@H]2OC(O)[C@@H]3OC(=O)c4cc(O)c(O)c(O)c4-c4c(cc(O)c(O)c4O)C(=O)O[C@H]3[C@@H]2OC(=O)c2cc(O)c(O)c(O)c2-c2c1cc(O)c(O)c2O (stereo partly specified)
OUTPUT: > 100 mg/kg
